Target: MAP kinase-activated protein kinase 5 (Homo sapiens)
Conditions: at 1 µM
READOUT: inhibition (%)
Give the quantity in %, number only.

COMPOUND: c1cc(-c2cnn3nc(N4CCOCC4)ccc23)nc(NC2CC2)n1
STUDY_SYSTEM: MAP kinase-activated protein kinase 5 (Homo sapiens)
READOUT: inhibition
ASSAY_RESULT: 0.41
--
COMPOUND: Cc1cccc2c1NC(=O)/C2=N\Nc1ccc(S(N)(=O)=O)cc1
STUDY_SYSTEM: MAP kinase-activated protein kinase 5 (Homo sapiens)
READOUT: inhibition
ASSAY_RESULT: -0.06
--
COMPOUND: COc1cccc(-n2ncc3c(N/N=C/c4ccc(F)cc4)ncnc32)c1
STUDY_SYSTEM: MAP kinase-activated protein kinase 5 (Homo sapiens)
READOUT: inhibition
ASSAY_RESULT: 2.88
--
COMPOUND: CNC(=O)c1cncc(/C=C/c2ccccc2Cl)c1
STUDY_SYSTEM: MAP kinase-activated protein kinase 5 (Homo sapiens)
READOUT: inhibition
ASSAY_RESULT: 1.73
--
COMPOUND: COc1cc2c(cc1Nc1nc(Nc3ccsc3C(N)=O)c3cc[nH]c3n1)N(C(=O)CN(C)C)CCC2(C)C
STUDY_SYSTEM: MAP kinase-activated protein kinase 5 (Homo sapiens);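 also: mean inhibition of PRAK measured in the GSK PKIS screen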
READOUT: inhibition
ASSAY_RESULT: 3.7

Record summary for O=S(=O)(CCNCc1ccc(-c2ccc3ncnc(Nc4ccc(OCc5cccc(F)c5)c(Cl)c4)c3c2)o1)c1ccccc1 : reported inhibition = 2.09

Record summary for CC(=O)Nc1cccc(C#Cc2cncnc2Nc2ccc(OCc3cccc(F)c3)c(Cl)c2)c1 : reported inhibition = -0.79

Record summary for CCCN1CCC(c2ccc(Nc3nc(Nc4cc(F)ccc4C(N)=O)c4cc[nH]c4n3)c(OC)c2)CC1 : reported inhibition = 40.9

Record summary for CC1=C(C(=O)Nc2cc(Cl)c3[nH]ncc3c2)C(c2ccc(C(F)(F)F)cc2)CC(=O)N1 (centres undefined) : reported inhibition = 2.73

The origin of these recorded values is ChEMBL document CHEMBL1961873.
